# Measured on: human A2BAR (Homo sapiens)
# Construct: host or cells: CHO-spap
# Sequence (P29275 whole entry): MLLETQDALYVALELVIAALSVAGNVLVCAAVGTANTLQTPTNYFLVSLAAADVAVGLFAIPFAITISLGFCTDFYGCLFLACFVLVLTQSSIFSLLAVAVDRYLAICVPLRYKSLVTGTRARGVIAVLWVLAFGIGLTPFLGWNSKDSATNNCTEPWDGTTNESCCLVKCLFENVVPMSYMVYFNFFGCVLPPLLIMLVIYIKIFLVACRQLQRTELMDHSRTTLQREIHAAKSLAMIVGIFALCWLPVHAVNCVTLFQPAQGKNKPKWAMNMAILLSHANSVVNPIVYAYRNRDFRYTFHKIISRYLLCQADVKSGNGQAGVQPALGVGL
# Measurement protocol: [3H]PSB-603 competition association assay
# Assay type: binding
# Assay setup: read-out: koff (converted)
Assay endpoint: koff (s⁻¹)
Respond numerically; units are s⁻¹ and should not be typed.

Task: Item under review: CCCn1c(=O)c2[nH]c(-c3ccc(OCC(=O)Nc4ccccc4)cc3)nc2n(CCC)c1=O . Reported koff?
Output: 0.000367

Task: Item under review: CCCn1c(=O)c2[nH]c(-c3ccc(OCC(=O)Nc4ccc([N+](=O)[O-])cc4)cc3)nc2n(CCC)c1=O . Reported koff?
Output: 0.000283

Task: Item under review: CCCn1c(=O)c2[nH]c(-c3ccc(OCC(=O)Nc4ccc(C)cc4)cc3)nc2n(CCC)c1=O . Reported koff?
Output: 0.0003

Task: Item under review: CCCn1c(=O)c2[nH]c(-c3ccc(OCC(=O)Nc4ccc(C(=O)OC)cc4)cc3)nc2n(CCC)c1=O . Reported koff?
Output: 0.000183

Task: Item under review: CCCn1c(=O)c2[nH]c(-c3ccc(OCC(=O)NCc4ccc(F)cc4)cc3)nc2n(CCC)c1=O . Reported koff?
Output: 0.0011

Task: Item under review: CCCn1c(=O)c2[nH]c(-c3ccc(OCC(=O)N[C@H](C)c4ccccc4)cc3)nc2n(CCC)c1=O . Reported koff?
Output: 0.00273

Task: Item under review: CCCn1c(=O)c2[nH]c(-c3ccc(OCC(=O)N[C@@H](C)c4ccccc4)cc3)nc2n(CCC)c1=O . Reported koff?
Output: 0.00162
